Assay: amyloid nucleation score (Sup35N fusion, yeast selection) (log enrichment); library NNK2; higher = more nucleation; inactive = no reads after selection;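 further: zero at mode of non-aggregating sequences after 7 days selection at 30°C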
PROPERTY LABEL: amyloid nucleation score

>>> df
       primary_sequence            property_label  meas_value
0  GYLILFTCNPLVFLVNRSGR  amyloid nucleation score    inactive
1  VGIRRYVRFKVLHNRVNVHE  amyloid nucleation score    inactive
2           SACNARRVPFG  amyloid nucleation score       0.788

* * *

Test: amyloid nucleation score (Sup35N fusion, yeast selection) (log enrichment); library NNK2; higher = more nucleation; inactive = no reads after selection
PROPERTY LABEL: amyloid nucleation score

Example results:
In [3]: df
Out[3]:
       primary_sequence  meas_value
0            LCERYWKALK    inactive
1  PEILMSDGIRKLCSVYVFLR    inactive
2  FARSFPRFRTESFDCKECRG    inactive
3  VIYIWVSVPITPWESIIRGI    inactive

// below: amyloid nucleation score requested for another sequence
Q) Note amyloid nucleation score for the sequence shown: SRLYGLDCRILFVNFYTKLP
A) inactive

* * *

Assay: amyloid nucleation score (Sup35N fusion, yeast selection) (log enrichment); library NNK3; higher = more nucleation; inactive = no reads after selection
PROPERTY LABEL: amyloid nucleation score

In [3]: df
Out[3]:
       primary_sequence  meas_value
0       NYGFGRVSAFYHQLA    inactive
1  CICWQHDKVVAYSLSDAGMA    inactive
2          VSLPSVIKYNDS    inactive

* * *

Assay: amyloid nucleation score (Sup35N fusion, yeast selection) (log enrichment); library NNK2; higher = more nucleation; inactive = no reads after selection
PROPERTY LABEL: amyloid nucleation score
Response field accepts a number only; no unit should be typed.

Q) Dear colleague, please send me the reported amyloid nucleation score for RQAKPICCHMVLLDSWPKSM when you can.
A) 0.164

Q) Kindly indicate its recorded amyloid nucleation score. Item: LSPVSWYLRITYNAYSMVGQ
A) 1.91

Q) Indicate the recorded amyloid nucleation score value for this sequence: GGYICFQMFFYCVFARNY
A) 1.27

Q) Tell me amyloid nucleation score reported for LKITRRSALV
A) 0.186

Q) Give the reported amyloid nucleation score for this sequence. CIRRESCIRICGGDCVCHRA
A) 2.97

* * *

Test: amyloid nucleation score (Sup35N fusion, yeast selection) (log enrichment); library NNK2; higher = more nucleation; inactive = no reads after selection
PROPERTY LABEL: amyloid nucleation score

       primary_sequence  meas_value
0  GGALGDFGTHEFNLNAPYSQ    inactive
1  FIAFFSWFFGWWRKMQAQAL    inactive
2  GRKLNFGQAFLWLYQVCWFM    inactive

* * *

Exercise: for every item that follows, state its recorded amyloid nucleation score.
Experiment: amyloid nucleation score (Sup35N fusion, yeast selection) (log enrichment); library NNK2; higher = more nucleation; inactive = no reads after selection
Please give the numeric answer without any surrounding text.

Q) Specify reported amyloid nucleation score for the sequence shown: IKHDLSTFNNFSPVSWNMVY
A) -0.307

Q) Query amyloid nucleation score for NGGSGNQVMLEVTNLVFK
A) 5.29

Q) Dear colleague, please send me the reported amyloid nucleation score for PSGNQELLGTMTWIRKVTQS when you can.
A) -0.86

Q) Check the records and state amyloid nucleation score for APRWWFYVDSY
A) 0.237

Q) Look up and report measured amyloid nucleation score for this entry: RFSCTKFRGKGLFWMLKCVL
A) -0.835

Q) Entry SSSIRVRTDEHMEVAGKRLS needs its amyloid nucleation score filled in; supply it.
A) 0.217

Q) // fetch amyloid nucleation score given entry GYINEYCCHLRVNGLLRAPG
A) -0.315

Q) Please give measured amyloid nucleation score of the following entry: IGLYGNANPMTGVHSHLLCG
A) -0.088

Q) Kindly indicate its recorded amyloid nucleation score. Item: AGFMHVCYGSGQHRSKVDGC
A) 2.93

Q) Given the sequence MCVLECFDAGSGYLR , write its reported amyloid nucleation score.
A) 1.06

These entries and their values trace back to the supplement of paper PMC12042874.
